- assay_protocol: Activity at synthetic biotin-RNA pseudoknot assessed as increase in -1 ribosomal frameshifting efficiency at 250 uM by dual luciferase assay
Active and inactive are the calls of the source. No cut-off for these calls is given here.
measurement_type: Activity

Solved cases (5 shown):
                                   compound  meas_value
0  COC(=O)c1cc(NC(=O)NCCSCc2ccccc2)cc(C(=O)OC)c1      Active
1  COC(=O)C(CCCCNC(=O)Nc1cc(F)ccc1F)NS(=O)(=O)c1ccc(C)cc1 (stereo unspecified)       18.1%
2  CCOC(=O)c1cccc(NC(=O)N2CCCN2C(=O)c2cccnc2SCCCC#N)c1      Active
3        CCOC(=O)N1CCN(C(=O)Nc2ccccc2SC)CC1      Active
4  CCOC(=O)C(CSCc1ccccc1)NC(=O)Nc1ccc(SC)cc1 (stereo unspecified)      Active

// query Activity value for entry "CSc1ccccc1NC(=O)NCC(=O)OCc1ccccc1"
Active
